Numbers sourced from the supplement of paper PMC11780869.

- Tested on: Bacillus subtilis
- EXPERIMENT: cleaved RNA product abundance (RNA/gDNA barcode ratio) relative to median wild-type variant (ratio to wild type); higher = more accumulation of the downstream cleavage product
- SETTINGS: experiment (reporter, strain, medium): exp 8a: truncated aprE reporter, strain BJT201 with 2% xylose (RNase J1 expressed); cleavage site: glnRA (positions -5 to +31 mutated)
This listing pairs sequences with measured cleaved RNA product abundance.
Write the value as a bare number.

Request: Which cleaved RNA product abundance value is on record for `CGACATGTCCCGCTTCTTTCATTAATCTGTTAGCAACAGTTTTGCTATATACATTTACCTTTTAAGAGGAGGAAT` ?
Response: 0.686

Request: Param item: `CGACATGTCCCGCTTCTTTCATTAATCCGTTACCAACTGTTTTGCGATATACATTTACCTTTTAAGAGGAGGAAT`
Response: 0.264

Request: Quick one: `CGACATGTCCCGCTTCTTTCATTAATCCGTTAGCAACTGTTTTACTATATATATTTACCTTTTAAGAGGAGGAAT`
Response: 0.708

Request: Entry to check: `CGACATGTCCCGCTTCTTTCATTAATCAGTTTGCAACTGTTTTGCTATATACATTTACCTTTTAAGAGGAGGAAT`
Response: 0.686

Request: Subsequent entry: `CGACATGTCCCGCTTCTTTCATTAATCCGTTAGCAACAGTTTTGCTATATACATTTTCCTTTTAAGAGGAGGAAT`
Response: 0.423

---

- Test system: Bacillus subtilis
- EXPERIMENT: cleaved RNA product abundance (RNA/gDNA barcode ratio) relative to median wild-type variant (ratio to wild type); higher = more accumulation of the downstream cleavage product
- SETTINGS: experiment (reporter, strain, medium): exp 8a: truncated aprE reporter, strain BJT201 with 2% xylose (RNase J1 expressed); cleavage site: glnRA (positions -5 to +31 mutated)
Rule: label 1 for cleaved RNA product abundance not less than 0.3, label 0 for anything less.

Worked cases, answers included:
CGACATGTCCCGCTTCTTTCATTAATCCTTTAGCAACTCTTTTGCTATATACATTTACCTTTTAAGAGGAGGAAT    label 1
CGACATGTCCCGCTTCTTTCATTAATCCGTTAGTAACTGTTTTGCTATAGACATTTACCTTTTAAGAGGAGGAAT    label 1
CGACATGTCCCGCTTCTTTCATTAATCCGTTAGAATCTGTTTTGCTATATACATTTACCTTTTAAGAGGAGGAAT    label 0

Request: Is the recorded value of cleaved RNA product abundance equal to or greater than 0.3 for this sequence? `CGACATGTCCCGCTTCTTTCATTAATCCGTTAGCAACTGTTTTGCTATATACCTTCACCTTTTAAGAGGAGGAAT`
Response: label 0

---

- Test system: Bacillus subtilis
- EXPERIMENT: cleaved RNA product abundance (RNA/gDNA barcode ratio) relative to median wild-type variant (ratio to wild type); higher = more accumulation of the downstream cleavage product
- SETTINGS: experiment (reporter, strain, medium): exp 2b: truncated aprE reporter, strain BJT200; cleavage site: cggR-gapA (positions -7 to +36 mutated)
// reported cleaved RNA product abundance per item
Please give only the number in your answer, with no unit.

The examples below pair each entry with its known result.
ACAGACGAAGGAGCCGCAAAGAAGTTATTAAGGTATGAATAATCCCTCAAGATAAATATCTCTCACTTATTTAAA    0.111
ACAGACGAAGGAGCCGCAAAGAAGTTATTAAAGAATGAATAATCCCTCAATATAAATATCTCTCACTTATTTAAA    0.0737
ACAGACGAAGGAGCCGCAAAGAAGTTATTAAGGGATGTATAATCCCTCAATTTAAATATCTCTCACTTATTTAAA    0.218

Request: GET /values?readout=cleaved RNA product abundance&item= `ACAGACGAAGGAGCCGCAAAGAAGTTATTAAGTGATGAATAAACCCTCAATATAAATATCTCTCACTTATTTAAA`
Response: 0.113

Request: Proceed to `ACAGACGAAGGAGCCGCAAAGAAGTTATTAAAGGATGAATAATCCCTCAATATAAAAATCTCTCACTTATTTAAA`
Response: 0.147

Request: Same again, this time with `ACAGACGAAGGAGCCGCAATGAAATTATTAAGGGATGAATAATCCCTCAATATAAATATCTCTCACTTATTTAAA`
Response: 0.716

Request: What about `ACAGACGAAGGAGCCGCAAAGAAGTTATTATGGCATGAATAATCCCTCAATATAAATATCTCTCACTTATTTAAA` ?
Response: 0.0973

---

- Test system: Bacillus subtilis
- EXPERIMENT: cleaved RNA product abundance (RNA/gDNA barcode ratio) relative to median wild-type variant (ratio to wild type); higher = more accumulation of the downstream cleavage product
- SETTINGS: experiment (reporter, strain, medium): exp 8a: truncated aprE reporter, strain BJT201 with 2% xylose (RNase J1 expressed); cleavage site: glnRA (positions -5 to +31 mutated)
Binary call on cleaved RNA product abundance: 1 (yes) from 0.6 upward, 0 (no) beneath that.

Request: API: above_or_equal(metric=cleaved RNA product abundance, cutoff=0.6) for item `CGACATGTCCCGCTTCTTTCATTAATCCGTCAGCAACTGTTTTGCTATATACATTTACCTTTTAAGAGGAGGAAT`
Response: 0 (no)

Request: Now consider `CGACATGTCCCGCTTCTTTCATTAATCCGTTAGCAACTGTTATGCTATATACAATTACCTTTTAAGAGGAGGAAT` .
Response: 1 (yes)

Request: Please answer likewise for `CGACATGTCCCGCTTCTTTCATTAATCAGTTAGCAACTGTTTTGCTATATACTTTTACCTTTTAAGAGGAGGAAT`
Response: 0 (no)

---

- Test system: Bacillus subtilis
- EXPERIMENT: cleaved RNA product abundance (RNA/gDNA barcode ratio) relative to median wild-type variant (ratio to wild type); higher = more accumulation of the downstream cleavage product
- SETTINGS: experiment (reporter, strain, medium): exp 4a: truncated aprE reporter, strain BJT201 with 2% xylose (RNase J1 expressed); cleavage site: cggR-gapA (positions -7 to +36 mutated)
REPORTED PROPERTY: cleaved RNA product abundance
Give the value as a plain number.

Request: GET /values?readout=cleaved RNA product abundance&system=Bacillus subtilis&item= `ACAGACGAAGGAGCCGCAAAGAAGTTTTTAAGGGATGAATAATTCCTCAATATAAATATCTCTCACTTATTTAAA`
Response: 0.195

---

- Tested on: Bacillus subtilis
- EXPERIMENT: cleaved RNA product abundance (RNA/gDNA barcode ratio) relative to median wild-type variant (ratio to wild type); higher = more accumulation of the downstream cleavage product
- SETTINGS: experiment (reporter, strain, medium): exp 4a: truncated aprE reporter, strain BJT201 with 2% xylose (RNase J1 expressed); cleavage site: cggR-gapA (positions -7 to +36 mutated)
Decide using cleaved RNA product abundance: a value greater than or equal to 0.2 is label 1, a smaller one is label 0.

Field: example entries. Status: answers known.
ACAGACGAAGGAGCCGCAATGAAGTTATTAAGGAATGAATAATCCCTCAATATAAATATCTCTCACTTATTTAAA    label 0
ACAGACGAAGGAGCCGCAAAGAAGTAATTAAGGGATGAATAATCCGTCAATATAAATATCTCTCACTTATTTAAA    label 0
ACAGACGAAGGAGCCGCAAAAAAGTTATTAAGGGTTGAATAATCCCTCAATATAAATATCTCTCACTTATTTAAA    label 1
ACAGACGAAGGAGCCGCAAAGAATTTCTTAAGGGATGAATAATCCCTCAATATAAATATCTCTCACTTATTTAAA    label 1
ACAGACGAAGGAGCCGCAAAGAAGTTATTAAGGGGTGAATAATCCCTAAATATAAATATCTCTCACTTATTTAAA    label 1

Request: Please check the record `ACAGACGAAGGAGCCGCAAAGAAATTATTAAGGGATGAATAATCCCTCAATATAAATATATCTCACTTATTTAAA` and state if its cleaved RNA product abundance is at or above 0.2.
Response: label 1

Request: Next sequence: `ACAGACGAAGGAGCCGCAAAGAAGTTATTAAGGGATGAATAATCCCTCAATATAAATCTCTCTCACTTATTTAAA`
Response: label 1

---

- Tested on: Bacillus subtilis
- EXPERIMENT: cleaved RNA product abundance (RNA/gDNA barcode ratio) relative to median wild-type variant (ratio to wild type); higher = more accumulation of the downstream cleavage product
- SETTINGS: experiment (reporter, strain, medium): exp 4a: truncated aprE reporter, strain BJT201 with 2% xylose (RNase J1 expressed); cleavage site: cggR-gapA (positions -7 to +36 mutated)
In this section we review reported cleaved RNA product abundance values for a set of sequences.

Request: cleaved RNA product abundance for `ACAGACGAAGGAGCCGCAAAGAAGTTTTTAAGGGATGAATAATCCCTCAATATACATATCTCTCACTTATTTAAA` ?
Response: 0.364
